Molecular target: T1, gH/gL/UL128/UL130/UL131A pentamer complex expressed from MVA-PC in BHK-21 cells (human cytomegalovirus, UniProt P12824 24-743; P16832 31-278; P16837 28-171; P16772 1-214; F5HET4 19-129)
T1 construct: whole, on cells
Experiment: FC competition, MVA-PC BHK-21; unlabelled row Ab; competitor: biotinylated 62-11; note: test concentration or dose not given here
Parameter Binding Inhibition (%): see the listing below.

binder	Binding Inhibition (%)
18F10 (antibody, V domains shown, also called NAb 18F10) VH: QVTLKESGPGILQPSQTLSLTCSFSGFSLSTYGIGIGWIRQPSGKGLEWLAHIWWNDNKNYNTALKSRLTISKDPSNNQVFLKIASVDTADTATYFCARTGYFDVWGAGTTVTVSS VL: DVVLTQTPLSLPVSLGDQVSISCSSSQSLVHSNGNTYIHWYLQKPGQSPKLLIYTVSNRFSGVPDRFSGSGSGTDFTLKISRVEAEDLGLYFCSQSTHVPYTFGGGTKLEIK	0%
2-80 (antibody, V domains shown, also called NAb 2-80) VH: QIQLVQSGPELKKPGETVKISCKASGYTFTNFGMNWVKQAPGKGLKWMGWINTYTGEPTYADDFKGRFAFSLETSASTASLQINNLKNEDTATYFCARRGDGLYSMDYWGQGTSVTVSS VL: DIVLTQSPASLAVSLGQRATISCRASESIDSYGNSFMYWYQQKPGQPPKLLIYRASNLESGIPARFSGSGSRTDFTLTINPVEADDVATYYCQQSNEDPLTFGAGTKLELK	43%
